# Assay Remarks: CSF-to-plasma unbound concentration ratio in rat after intravenous administration
# Assay type: in vivo
# Experimental Parameters: CSF and plasma (unbound), iv, 15 minutes after intravenous administration, fp by ultracentrifugation method
# strict inequality: Kp uu at 0.25 h < 0.05 yields true (1), everything else yields false (0)

Does CC(=O)NCCc1c(C)[nH]c2ccc(OCCOc3ccnc(C)c3)cc12 [Example 18] have Kp uu at 0.25 h strictly under 0.05?
false (0)

Also, CNC(=O)NCCc1c(C)[nH]c2ccc(OCCOc3ccn(C)n3)cc12 [Example 10] please.
false (0)

Same again, this time with CNC(=O)NCCc1c[nH]c2ccc(OCCOc3ccc(OC)nc3)cc12 [Example 23]
true (1)

Same question, CCC(=O)NCCc1c(C)[nH]c2ccc(OCCn3ccc(C)n3)cc12 [Example 15] this time
true (1)

Cool, now CC(=O)NCCc1c[nH]c2cc(F)c(OCCOc3ccn(C)n3)cc12 [Example 6]
false (0)

What would you report for CC(=O)NCCc1c(C)[nH]c2cc(F)c(OCCOc3ccn(C)n3)cc12 [Example 13] ?
true (1)

Could you do the same for CNC(=O)NCCc1c(C)[nH]c2ccc(OCCOc3ccc(OC)nc3)cc12 [Example 31] , please?
true (1)

Then COc1ccc(OCCOc2ccc3[nH]cc(CCNC(C)=O)c3c2)cn1 [Example 5] ?
false (0)

How about this compound: CC(=O)NCCc1c(C)[nH]c2ccc(OCCOc3ccn(C)n3)cc12 [Example 7]
false (0)

How about CC(=O)NCCc1c[nH]c2ccc(OCCn3ccc(C(F)(F)F)n3)cc12 [Example 4] ?
false (0)

Continue with CCC(=O)NCCc1c[nH]c2ccc(OCCOc3ccn(C)n3)cc12 [Example 8]
false (0)
